- target.of.assay: Serotonin 3 (5-HT3) receptor (Rattus norvegicus, UniProt P35563+Q9JJ16)
- Sequence (P35563 whole entry): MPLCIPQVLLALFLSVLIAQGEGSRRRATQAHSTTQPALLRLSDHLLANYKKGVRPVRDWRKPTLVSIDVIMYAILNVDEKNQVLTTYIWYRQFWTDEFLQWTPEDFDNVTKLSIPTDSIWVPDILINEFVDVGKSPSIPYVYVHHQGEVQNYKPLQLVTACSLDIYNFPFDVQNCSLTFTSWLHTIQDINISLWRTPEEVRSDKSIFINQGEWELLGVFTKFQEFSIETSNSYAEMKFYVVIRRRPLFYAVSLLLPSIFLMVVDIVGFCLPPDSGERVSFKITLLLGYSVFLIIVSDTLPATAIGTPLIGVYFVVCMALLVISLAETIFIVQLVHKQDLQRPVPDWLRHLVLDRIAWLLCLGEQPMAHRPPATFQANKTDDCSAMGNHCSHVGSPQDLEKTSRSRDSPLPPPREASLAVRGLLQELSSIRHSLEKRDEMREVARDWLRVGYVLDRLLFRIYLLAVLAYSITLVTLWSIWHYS
- Sequence (Q9JJ16 whole entry): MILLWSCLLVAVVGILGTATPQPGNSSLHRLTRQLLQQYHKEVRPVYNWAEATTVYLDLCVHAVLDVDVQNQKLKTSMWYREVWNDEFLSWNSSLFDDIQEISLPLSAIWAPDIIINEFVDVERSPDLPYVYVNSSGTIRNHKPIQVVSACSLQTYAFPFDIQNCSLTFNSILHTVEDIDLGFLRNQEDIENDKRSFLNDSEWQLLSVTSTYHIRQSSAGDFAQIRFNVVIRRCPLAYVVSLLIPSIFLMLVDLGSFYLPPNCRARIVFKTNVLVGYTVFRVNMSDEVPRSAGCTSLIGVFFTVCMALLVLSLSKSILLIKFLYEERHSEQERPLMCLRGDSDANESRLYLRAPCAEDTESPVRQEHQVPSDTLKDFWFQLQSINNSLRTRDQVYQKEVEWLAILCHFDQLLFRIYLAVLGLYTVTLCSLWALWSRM
- measurement.notes: Binding affinity was measured on 5-hydroxytryptamine 3 receptor using [3H]-BRL 43694 as radioligand in rat posterior cortex
assay.readout: Ki

Task: Which value of Ki has been reported for COc1cc(N)c(Cl)cc1C(=O)OCCN1CCCC(O)C1 (stereo in doubt; 7j) in the records?
Result: > 1000 nM
